Here the recorded z-score is given for each entry.
target-or-test-system: Homeobox protein Hox-A13 (Mus musculus)
protocol-details: disruptors of Hoxa13 oligonucleotide interaction – biochemical, fluorescence polarization, labeled oligonucleotide, primary screen (AID 1185)
experimental-conditions: Hoxa13:DNA binding, 15 min, higher = more signal, called active from +8 up or from −8 down
reported-endpoint: z-score

>>> quantitative_result("CCCNC(=O)[C@@]1(Sc2ccc(C)cc2)CC(=O)N(Cc2ccccc2)[C@@H]1c1ccc(CO)cc1I")
-2.54
>>> quantitative_result("COCCCNC(=O)[C@]1(Cc2ccccc2)N=C(c2ccc(OCCCO)cc2)O[C@@H]1c1ccccc1N=[N+]=[N-]")
-4.42
>>> quantitative_result("CCOc1cc(C(O)C2C=CC3C(=O)NC(=O)C3N2Nc2ccccn2)ccc1O (centres undefined)")
-0.998
>>> quantitative_result("CC1CC/C=C\\[C@H]2OC34C=CCN(Cc5ccccc5)C(=O)[C@H]3N(CCO)C(=O)[C@@H]4C2C(=O)O1 (some centres undefined)")
-4.51

Origin of measurements: PubChem BioAssay
